Consider the following compounds; for each one, report its IC50.
target-under-test: UniProt P34913
assay: Inhibition of recombinant human sEH (HsEH)
Type: biochemical
condition: Table 2; HsEH 0.26 μM
Give bare numbers, in µM.

Sample records with IC50:
query: Quick one: IC50 for CC(=O)C1OC1c1ccc([N+](=O)[O-])cc1 (racemic) ?
result: 269

query: One more compound: Cc1ccc(C(=O)C2OC2c2ccc(-c3ccccc3)cc2)cc1 (racemic)
result: 0.19

query: One more compound: COC(c1ccccc1)C1OC1c1ccccc1 (racemic)
result: 34

Now look at this entry.
query: Quick one: IC50 for COC(c1ccccc1)C1OC1c1ccc(-c2ccccc2)cc1 (racemic) ?
result: 1.36

* * *

target-under-test: Human sEH (HsEH) (Homo sapiens)
Sequence (P34913 whole entry): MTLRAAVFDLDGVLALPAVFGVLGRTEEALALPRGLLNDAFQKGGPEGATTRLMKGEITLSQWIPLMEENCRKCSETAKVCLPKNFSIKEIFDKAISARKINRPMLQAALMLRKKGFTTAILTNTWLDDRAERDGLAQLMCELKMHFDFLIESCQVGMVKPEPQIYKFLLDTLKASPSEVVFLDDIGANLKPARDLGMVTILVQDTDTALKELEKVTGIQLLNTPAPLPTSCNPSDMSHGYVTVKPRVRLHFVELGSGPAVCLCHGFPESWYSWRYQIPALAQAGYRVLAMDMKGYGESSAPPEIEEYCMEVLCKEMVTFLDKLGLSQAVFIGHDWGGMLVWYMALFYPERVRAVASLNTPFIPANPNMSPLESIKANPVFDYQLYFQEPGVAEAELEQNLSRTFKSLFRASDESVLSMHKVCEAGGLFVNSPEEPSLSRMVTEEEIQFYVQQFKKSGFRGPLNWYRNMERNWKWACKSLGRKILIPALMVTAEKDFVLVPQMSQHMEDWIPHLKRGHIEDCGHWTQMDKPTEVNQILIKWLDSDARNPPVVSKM
assay: Inhibition of recombinant human sEH (HsEH)
Assay type: biochemical
condition: Table 1; HsEH 0.26 μM
Consider the following compounds; for each one, report its pIC50.
Answers are plain numbers, as −log10 of the molar value.

query: Quick one: pIC50 for O=C(NCCCN1CCOCC1)NC1CCCCC1 [compound 377] ?
result: 4.75

query: One more compound: O=C(NCCC1=CCCCC1)NCc1ccccc1 [compound 471]
result: 5.66

query: One more compound: O=C(NCCCc1ccccc1)NC12CC3CC(CC(C3)C1)C2 [compound 438]
result: 7.00

query: One more compound: CCCCCCCCNC(=O)NC(C)C [compound 183]
result: 5.23

query: One more compound: CN(C)c1ccc(NC(=O)NC2CCCCC2)cc1 [compound 362]
result: 5.82

query: One more compound: O=C(NCCc1ccc(Cl)cc1)NC1CCCCC1 [compound 361]
result: 6.70

// each compound listed below needs its pIC50
1. CCCCCCCCCCCCNC(=O)NC1CCCCC1 [compound 297]
2. CCCCCCNC(=O)Nc1ccccc1 [compound 157]

result:
7.00
5.84

// each compound listed below needs its pIC50
1. COc1ccc(CCNC(=O)NC2CCCCC2)cc1OC [compound 384]
2. O=C(Nc1c2ccccc2nc2ccccc12)NC1CCCCC1 [compound 559]
3. O=C(Nc1ccc(F)cc1)NC1CCCCC1 [compound 60]
4. O=C(NCCCc1ccccc1)NC1CCCCC1 [compound 104]
5. O=C(NCC1CCCCC1)NC12CC3CC(CC(C3)C1)C2 [compound 437]
6. CCCCCCCCNC(=O)NCCCCC [compound 125]
7. O=C(NC1CCCCC1)Oc1ccc2ccccc2c1 [compound 110]

result:
1. 6.00
2. 6.85
3. 6.37
4. 6.54
5. 7.00
6. 6.14
7. 6.46

* * *

Consider the following compounds; for each one, report its pIC50.
target-under-test: recombinant mouse sEH (MsEH) (Mus musculus)
Sequence (P34914 1-554): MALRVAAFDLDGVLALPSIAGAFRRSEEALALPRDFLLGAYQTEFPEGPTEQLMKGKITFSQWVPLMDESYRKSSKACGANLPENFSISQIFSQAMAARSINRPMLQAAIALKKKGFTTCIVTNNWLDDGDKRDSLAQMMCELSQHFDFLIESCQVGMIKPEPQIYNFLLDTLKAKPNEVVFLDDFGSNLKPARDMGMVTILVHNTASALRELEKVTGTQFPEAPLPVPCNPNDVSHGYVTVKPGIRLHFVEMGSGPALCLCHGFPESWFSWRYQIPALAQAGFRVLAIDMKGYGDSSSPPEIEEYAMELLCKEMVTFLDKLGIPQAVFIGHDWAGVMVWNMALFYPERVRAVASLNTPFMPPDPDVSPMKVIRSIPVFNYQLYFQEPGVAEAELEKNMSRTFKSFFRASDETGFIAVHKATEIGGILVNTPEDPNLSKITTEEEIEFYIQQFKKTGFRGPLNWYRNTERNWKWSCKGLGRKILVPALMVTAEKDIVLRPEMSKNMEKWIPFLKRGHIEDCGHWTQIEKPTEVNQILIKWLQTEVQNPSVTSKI
assay: Inhibition of recombinant mouse sEH (MsEH)
Assay type: biochemical
Numbers only, as −log10 of the molar value.

Sample records with pIC50:
query: Quick one: pIC50 for CCCCCCCCNC(=O)Nc1ccccc1 ?
result: 5.64

query: One more compound: CCNC(=O)OC1CCCCC1
result: 6.32

query: One more compound: O=C(NC1CCCCC1)Oc1ccc2ccccc2c1
result: 6.68

// each compound listed below needs its pIC50
1. C(=NC1CCCCC1)=NC1CCCCC1
2. O=C(Nc1ccc(Cl)cc1)Nc1ccc(Cl)c(Cl)c1
3. CCCCCCCCCCOC(=O)NC

result:
[6.60, 6.44, 6.48]

query: Quick one: pIC50 for O=C(NC1CCCCC1)Oc1ccccc1CO ?
result: 6.00

* * *

target-under-test: Human sEH (HsEH) (Homo sapiens)
assay: Inhibition of recombinant human sEH (HsEH)
Format: biochemical
condition: Table 1; HsEH 0.26 μM
Consider the following compounds; for each one, report its IC50.
Report field: quantity (unit follows the number).

// each compound listed below needs its IC50
1. O=C(Nc1ccc(Br)cc1)NC1CCCCC1 [compound 65]
2. CCCCCCCCNC(=O)OC [compound 72]
3. CCCCCCCCCCCCNC(=O)NCCCC [compound 531]
4. O=C(NCCCCCCO)NC1CCCCC1 [compound 344]

result:
110 nM
480 nM
640 nM
2500 nM

// each compound listed below needs its IC50
1. O=C(Nc1ccc([N+](=O)[O-])cc1)NC1CCCCC1 [compound 38]
2. CCC(C)NC(=O)NC1CCCCC1 (stereo not drawn) [compound 479]

result:
["360 nM", "5000 nM"]

* * *

Consider the following compounds; for each one, report its IC50.
target-under-test: recombinant mouse sEH (MsEH) (Mus musculus, UniProt P34914)
Sequence (P34914 1-554): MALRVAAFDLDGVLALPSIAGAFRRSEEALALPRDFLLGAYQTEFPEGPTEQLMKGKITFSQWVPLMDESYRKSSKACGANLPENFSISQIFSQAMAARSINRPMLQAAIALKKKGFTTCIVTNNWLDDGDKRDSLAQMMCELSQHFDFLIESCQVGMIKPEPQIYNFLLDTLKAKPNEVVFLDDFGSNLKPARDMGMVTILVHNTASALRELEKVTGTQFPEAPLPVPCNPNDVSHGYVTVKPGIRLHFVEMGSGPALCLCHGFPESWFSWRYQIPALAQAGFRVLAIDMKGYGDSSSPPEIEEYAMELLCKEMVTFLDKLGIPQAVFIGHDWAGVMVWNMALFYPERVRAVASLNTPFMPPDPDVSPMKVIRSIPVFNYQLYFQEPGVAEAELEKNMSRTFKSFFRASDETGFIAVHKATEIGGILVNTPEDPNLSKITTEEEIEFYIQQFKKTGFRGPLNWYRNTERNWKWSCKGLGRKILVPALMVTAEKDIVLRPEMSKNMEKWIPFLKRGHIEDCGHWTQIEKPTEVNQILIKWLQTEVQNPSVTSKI
assay: Inhibition of recombinant mouse sEH (MsEH)
Assay type: biochemical
condition: Table 1; MsEH 0.13 μM; read-out: Mouse sEH IC50

query: Query the reported IC50 for recombinant mouse sEH (MsEH) (Mus musculus, UniProt P34914); item: CC(C)(C)CC(C)(C)NC(=O)NC1C2CC3CC(C2)CC1C3 (centres unmarked)
result: 180 nM

query: One more compound: CCCCCCCCCCCCNC(=O)OC1CCCCC1
result: 270 nM

// each compound listed below needs its IC50
1. O=C(NCCC1=CCCCC1)NCc1ccccc1
2. O=C(NC1CCCCC1)OCCCCc1ccc([N+](=O)[O-])cc1
3. O=C(NCCNc1ccccc1)NC1CCCCC1
4. O=C(NC1CCCCC1)OC1CCCCC1
5. C=C(C)CCOC(=O)NC1CCCCC1
6. CC(C)CNC(=O)NC1CCCCC1
7. O=C(CCCCc1ccccc1)NC1CCCCC1

result:
["250 nM", "100 nM", "900 nM", "60 nM", "120 nM", "120 nM", "60 nM"]

// each compound listed below needs its IC50
1. O=C(Nc1cccc2ccccc12)NC1CCCCC1
2. CCCCCNC(=O)NC1CCCCC1

result:
850 nM
60 nM

* * *

target-under-test: recombinant mouse sEH (MsEH) (Mus musculus)
assay: Inhibition of recombinant mouse sEH (MsEH)
Assay type: biochemical
condition: Table 1; MsEH 0.13 μM; read-out: Mouse sEH IC50
In plain terms, low IC50, meaning strictly below 90 nM, gives Satisfied, and everything else gives Not satisfied.

# example entries with known answers
query: Dear colleague, could you confirm whether IC50 of O=C(NCC1CCCCC1)NC1CCCCC1 [compound 57] falls below 90 nM? Thanks.
result: Satisfied

query: One more compound: CCCCCCCNC(=O)NC1CCCCC1 [compound 508]
result: Satisfied

query: One more compound: O=C(NC1CCCCC1)OCc1c2ccccc2cc2ccccc12 [compound 263]
result: Not satisfied

Further cases:
query: Dear colleague, could you confirm whether IC50 of O=C(NCCc1ccccc1)NCc1ccccc1 [compound 470] falls below 90 nM? Thanks.
result: Not satisfied

query: One more compound: O=C(Nc1ccc(F)cc1)NC1CCCCC1 [compound 60]
result: Not satisfied

Data provenance is patent US6756210B2.
